Target: human MOR (Homo sapiens)
Construct: expressed in transfected cells; host or cells: CHO cells (University of Ferrara), co-expressing Gαqi5
Sequence (P35372 whole entry): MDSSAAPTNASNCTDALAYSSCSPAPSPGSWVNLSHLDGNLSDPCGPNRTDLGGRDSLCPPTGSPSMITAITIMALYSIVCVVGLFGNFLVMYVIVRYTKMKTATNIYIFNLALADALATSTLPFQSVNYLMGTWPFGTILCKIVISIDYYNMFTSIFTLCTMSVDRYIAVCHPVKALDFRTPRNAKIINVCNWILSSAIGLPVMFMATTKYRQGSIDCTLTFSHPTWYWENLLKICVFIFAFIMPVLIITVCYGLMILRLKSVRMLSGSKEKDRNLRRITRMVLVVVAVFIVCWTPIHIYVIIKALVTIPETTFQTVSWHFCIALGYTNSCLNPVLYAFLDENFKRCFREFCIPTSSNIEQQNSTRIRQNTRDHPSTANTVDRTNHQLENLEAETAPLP
Assay: Calcium mobilization functional assay, agonist mode
Format: cell-based
Details: efficacy (intrinsic activity), Emax relative to EM-2; CHO cells co-expressing human MOR and Gαqi5; mean ± SEM, n = 5; SEM
Where a SMILES comes first, the peptide text is derived from it. Bridges are numbered along the chain shown (N, C = ends). [ ]: non-standard residue; d: D form. Nle = CCCC[C@H](N)C(=O)O
METRIC: MOR α ± SEM
Would you mind answering with just the numeric figure?

// worked examples, MOR α ± SEM included
CSCC[C@H](NC(=O)[C@H](CC(C)C)NC(=O)CNC(=O)[C@H](Cc1ccccc1)NC(=O)[C@H](Cc1ccccc1)NC(=O)[C@H](CCC(N)=O)NC(=O)[C@@H]1CC(=O)NCCCC[C@@H](NC(=O)[C@@H](N)Cc2ccc(O)cc2)C(=O)N[C@@H](Cc2ccccc2)C(=O)N[C@@H](Cc2ccccc2)C(=O)N1)C(N)=O [compound 4] (H-Y[dK]FFDQFFGLM-NH2; lactam 2-5) ... 0.90
CCCC[C@H](NC(=O)[C@H](CC(C)C)NC(=O)[C@@H](Cc1c[nH]c2ccccc12)NC(=O)[C@H](Cc1ccccc1)NC(=O)[C@@H](Cc1c[nH]c2ccccc12)NC(=O)[C@H](CC(N)=O)NC(=O)[C@@H]1CC(=O)NCCCC[C@@H](NC(=O)[C@@H](N)Cc2ccc(O)cc2)C(=O)N[C@@H](Cc2ccccc2)C(=O)N[C@@H](Cc2ccccc2)C(=O)N1)C(N)=O [compound 2] (H-Y[dK]FFDN[dW]F[dW]L[Nle]-NH2; lactam 2-5) ... 0.66

I have this compound here, CSCC[C@H](NC(=O)[C@H](CC(C)C)NC(=O)CNC(=O)[C@H](Cc1ccccc1)NC(=O)[C@H](Cc1ccccc1)NC(=O)[C@@H]1CC(=O)NCCCC[C@@H](NC(=O)[C@@H](N)Cc2ccc(O)cc2)C(=O)N[C@@H](Cc2ccccc2)C(=O)N[C@@H](Cc2ccccc2)C(=O)N1)C(N)=O [compound 5] (H-Y[dK]FFDFFGLM-NH2; lactam 2-5) , and I need its recorded MOR α ± SEM. 0.86

----------
Attribute: Ki
Target: human NK1 (Homo sapiens, UniProt P25103)
Sequence (P25103 whole entry): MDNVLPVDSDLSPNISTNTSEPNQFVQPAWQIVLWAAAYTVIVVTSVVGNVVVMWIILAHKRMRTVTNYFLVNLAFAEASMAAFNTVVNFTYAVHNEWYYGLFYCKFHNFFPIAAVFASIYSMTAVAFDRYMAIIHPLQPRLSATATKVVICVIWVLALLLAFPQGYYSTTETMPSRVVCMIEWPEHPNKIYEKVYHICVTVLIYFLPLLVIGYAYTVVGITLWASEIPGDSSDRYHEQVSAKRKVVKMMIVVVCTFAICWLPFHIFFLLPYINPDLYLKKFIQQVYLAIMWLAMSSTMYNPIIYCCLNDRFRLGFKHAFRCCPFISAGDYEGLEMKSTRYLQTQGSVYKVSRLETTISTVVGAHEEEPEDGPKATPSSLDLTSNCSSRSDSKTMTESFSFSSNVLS
Where a SMILES comes first, the peptide text is derived from it. Bridges are numbered along the chain shown (N, C = ends). [ ]: non-standard residue; d: D form. Nle = CCCC[C@H](N)C(=O)O
Numbers only here, please. The scale is µM.

CCCC[C@H](NC(=O)[C@H](CC(C)C)NC(=O)[C@@H](Cc1c[nH]c2ccccc12)NC(=O)[C@H](Cc1ccccc1)NC(=O)[C@@H](Cc1c[nH]c2ccccc12)NC(=O)[C@@H]1CC(=O)NCCCC[C@@H](NC(=O)[C@@H](N)Cc2ccc(O)cc2)C(=O)N[C@@H](Cc2ccccc2)C(=O)N[C@@H](Cc2ccccc2)C(=O)N1)C(N)=O [compound 3] (H-Y[dK]FFD[dW]F[dW]L[Nle]-NH2; lactam 2-5) ... 0.0128
CSCC[C@H](NC(=O)[C@H](CC(C)C)NC(=O)CNC(=O)[C@H](Cc1ccccc1)NC(=O)[C@H](Cc1ccccc1)NC(=O)[C@@H]1CC(=O)NCCCC[C@@H](NC(=O)[C@@H](N)Cc2ccc(O)cc2)C(=O)N[C@@H](Cc2ccccc2)C(=O)N[C@@H](Cc2ccccc2)C(=O)N1)C(N)=O [compound 5] (H-Y[dK]FFDFFGLM-NH2; lactam 2-5) ... 0.0516
CSCC[C@H](NC(=O)[C@H](CC(C)C)NC(=O)CNC(=O)[C@H](Cc1ccccc1)NC(=O)[C@@H]1CC(=O)NCCCC[C@@H](NC(=O)[C@@H](N)Cc2ccc(O)cc2)C(=O)N[C@@H](Cc2ccccc2)C(=O)N[C@@H](Cc2ccccc2)C(=O)N1)C(N)=O [compound 6] (H-Y[dK]FFDFGLM-NH2; lactam 2-5) ... 2.33

I have this molecule here, CSCC[C@H](NC(=O)[C@H](CC(C)C)NC(=O)CNC(=O)[C@H](Cc1ccccc1)NC(=O)[C@H](Cc1ccccc1)NC(=O)[C@H](CCC(N)=O)NC(=O)[C@@H]1CC(=O)NCCCC[C@@H](NC(=O)[C@@H](N)Cc2ccc(O)cc2)C(=O)N[C@@H](Cc2ccccc2)C(=O)N[C@@H](Cc2ccccc2)C(=O)N1)C(N)=O [compound 4] (H-Y[dK]FFDQFFGLM-NH2; lactam 2-5) , and I need its recorded Ki. 0.0156

And CSCC[C@H](NC(=O)[C@H](CC(C)C)NC(=O)CNC(=O)[C@@H]1CC(=O)NCCCC[C@@H](NC(=O)[C@@H](N)Cc2ccc(O)cc2)C(=O)N[C@@H](Cc2ccccc2)C(=O)N[C@@H](Cc2ccccc2)C(=O)N1)C(N)=O [compound 7, Tyr-[D-Lys-Phe-Phe-Asp]-Gly-Leu-Met-NH2] (H-Y[dK]FFDGLM-NH2; lactam 2-5) ? 8.13

And CCCC[C@H](NC(=O)[C@H](CC(C)C)NC(=O)[C@@H](Cc1c[nH]c2ccccc12)NC(=O)[C@H](Cc1ccccc1)NC(=O)[C@@H](Cc1c[nH]c2ccccc12)NC(=O)[C@H](CC(N)=O)NC(=O)[C@@H]1CC(=O)NCCCC[C@@H](NC(=O)[C@@H](N)Cc2ccc(O)cc2)C(=O)N[C@@H](Cc2ccccc2)C(=O)N[C@@H](Cc2ccccc2)C(=O)N1)C(N)=O [compound 2] (H-Y[dK]FFDN[dW]F[dW]L[Nle]-NH2; lactam 2-5) ? 0.0105

----------
Attribute: Ki
Target: human opioid receptor KOR (Homo sapiens, UniProt P41145)
Construct: purchased PerkinElmer (Krakow, Poland); host or cells: CHO cell membranes
Sequence (P41145 whole entry): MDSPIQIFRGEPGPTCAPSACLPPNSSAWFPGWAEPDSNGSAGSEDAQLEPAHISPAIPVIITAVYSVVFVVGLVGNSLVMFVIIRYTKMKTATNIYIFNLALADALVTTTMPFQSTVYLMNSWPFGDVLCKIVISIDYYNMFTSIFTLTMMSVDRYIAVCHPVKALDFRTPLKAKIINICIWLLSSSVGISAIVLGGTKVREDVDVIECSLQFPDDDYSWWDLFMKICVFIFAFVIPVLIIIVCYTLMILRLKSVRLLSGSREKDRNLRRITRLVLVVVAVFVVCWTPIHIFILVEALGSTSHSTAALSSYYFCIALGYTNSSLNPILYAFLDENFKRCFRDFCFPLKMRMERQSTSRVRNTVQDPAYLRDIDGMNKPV
Assay: Radioligand binding assay, displacement of [3H]U-69593
Conditions: displacement of [3H]U-69593 from membranes of CHO cells transfected with human KOR, 50 mM Tris/HCl pH 7.4, 0.5% BSA, peptidase inhibitors, 2 h at 25 °C, mean ± SEM, n ≥ 3
Where a SMILES comes first, the peptide text is derived from it. Bridges are numbered along the chain shown (N, C = ends). [ ]: non-standard residue; d: D form. Nle = CCCC[C@H](N)C(=O)O
Numbers only here, please. The scale is nM.

// worked examples, Ki included
CSCC[C@H](NC(=O)[C@H](CC(C)C)NC(=O)CNC(=O)[C@H](Cc1ccccc1)NC(=O)[C@H](Cc1ccccc1)NC(=O)[C@H](CCC(N)=O)NC(=O)[C@@H]1CC(=O)NCCCC[C@@H](NC(=O)[C@@H](N)Cc2ccc(O)cc2)C(=O)N[C@@H](Cc2ccccc2)C(=O)N[C@@H](Cc2ccccc2)C(=O)N1)C(N)=O [compound 4] (H-Y[dK]FFDQFFGLM-NH2; lactam 2-5) ... 10.8
CCCC[C@H](NC(=O)[C@H](CC(C)C)NC(=O)[C@@H](Cc1c[nH]c2ccccc12)NC(=O)[C@H](Cc1ccccc1)NC(=O)[C@@H](Cc1c[nH]c2ccccc12)NC(=O)[C@H](CC(N)=O)NC(=O)[C@@H]1CC(=O)NCCCC[C@@H](NC(=O)[C@@H](N)Cc2ccc(O)cc2)C(=O)N[C@@H](Cc2ccccc2)C(=O)N[C@@H](Cc2ccccc2)C(=O)N1)C(N)=O [compound 2] (H-Y[dK]FFDN[dW]F[dW]L[Nle]-NH2; lactam 2-5) ... 7.46
CSCC[C@H](NC(=O)[C@H](CC(C)C)NC(=O)CNC(=O)[C@H](Cc1ccccc1)NC(=O)[C@@H]1CC(=O)NCCCC[C@@H](NC(=O)[C@@H](N)Cc2ccc(O)cc2)C(=O)N[C@@H](Cc2ccccc2)C(=O)N[C@@H](Cc2ccccc2)C(=O)N1)C(N)=O [compound 6] (H-Y[dK]FFDFGLM-NH2; lactam 2-5) ... 2.7
NC(=O)[C@@H]1CC(=O)NCCCC[C@@H](NC(=O)[C@@H](N)Cc2ccc(O)cc2)C(=O)N[C@@H](Cc2ccccc2)C(=O)N[C@@H](Cc2ccccc2)C(=O)N1 [compound 1, Tyr-c[D-Lys-Phe-Phe-Asp]NH2] (H-Y[dK]FFD-NH2; lactam 2-5) ... 1.12
CCCC[C@H](NC(=O)[C@H](CC(C)C)NC(=O)[C@@H](Cc1c[nH]c2ccccc12)NC(=O)[C@H](Cc1ccccc1)NC(=O)[C@@H](Cc1c[nH]c2ccccc12)NC(=O)[C@@H]1CC(=O)NCCCC[C@@H](NC(=O)[C@@H](N)Cc2ccc(O)cc2)C(=O)N[C@@H](Cc2ccccc2)C(=O)N[C@@H](Cc2ccccc2)C(=O)N1)C(N)=O [compound 3] (H-Y[dK]FFD[dW]F[dW]L[Nle]-NH2; lactam 2-5) ... 2.85

I have this compound here, CSCC[C@H](NC(=O)[C@H](CC(C)C)NC(=O)CNC(=O)[C@@H]1CC(=O)NCCCC[C@@H](NC(=O)[C@@H](N)Cc2ccc(O)cc2)C(=O)N[C@@H](Cc2ccccc2)C(=O)N[C@@H](Cc2ccccc2)C(=O)N1)C(N)=O [compound 7, Tyr-[D-Lys-Phe-Phe-Asp]-Gly-Leu-Met-NH2] (H-Y[dK]FFDGLM-NH2; lactam 2-5) , and I need its recorded Ki. 0.89

And CSCC[C@H](NC(=O)[C@H](CC(C)C)NC(=O)CNC(=O)[C@H](Cc1ccccc1)NC(=O)[C@H](Cc1ccccc1)NC(=O)[C@@H]1CC(=O)NCCCC[C@@H](NC(=O)[C@@H](N)Cc2ccc(O)cc2)C(=O)N[C@@H](Cc2ccccc2)C(=O)N[C@@H](Cc2ccccc2)C(=O)N1)C(N)=O [compound 5] (H-Y[dK]FFDFFGLM-NH2; lactam 2-5) ? 28.3
